Cited source: PubChem BioAssay AID330

- Test system: P388 leukemia ip, CD2F1 mice, survival T/C
- method.description: NCI In Vivo Anticancer Drug Screen. Data for tumor model P388 Leukemia (intraperitoneal) in CD2F1 (CDF1) mice
- condition.context: endpoint: median survival time; dose: 30.0 mg/kg/injection; schedule: Q01DX005 (ip); vehicle: saline with Tween-80; higher = longer survival
Inconclusive results and toxic doses are left out.
assay.readout: T/C

State the recorded T/C for this entry: c1ccc(C(Nc2nncs2)Nc2nncs2)cc1 99 % of control

Same question, CN1c2ccccc2SC2C(c3ccccc3)=NOC21 (stereo not given) this time 88 % of control

Also, C=CC(=NC(C)(C)C)N(CC)CC please. 105 % of control

Next: O=C(NCc1ccccc1)Nc1cccc2c(NC(=O)NCc3ccccc3)cccc12 91 % of control

Same read-out for CCOC(=O)c1c(C(=O)OC)nc2n1-c1ccccc1OC2 ? 97 % of control

CC(=O)OCc1c(-c2ccccc2)c(=O)c1=O , same question. 103 % of control

Field entry: O=C(O)CC1OCC=C2CN3CCC45c6ccccc6NC4C1C2CC35 (stereo not given) 100 % of control

What about this compound? Cc1cc(C)c2c(c1N)C(=O)CCO2 102 % of control

Okay, and Nc1[nH]c(=O)ncc1-c1cccc(Cl)c1 ? 104 % of control

And for CCOC(CN/C(=C/c1ccc2ccccc2[n+]1C)SC)OCC ? 121 % of control

----------
- Test system: P388 leukemia ip, CD2F1 mice, survival T/C
- method.description: NCI In Vivo Anticancer Drug Screen. Data for tumor model P388 Leukemia (intraperitoneal) in CD2F1 (CDF1) mice
- condition.context: endpoint: median survival time; dose: 25.0 mg/kg/injection; schedule: Q01DX001 (ip); vehicle: saline with Tween-80; higher = longer survival
Toxic doses and inconclusive results are not listed.
assay.readout: T/C

GET /values?readout=T/C&item= [N-]=[N+]=CC(=O)C1(c2ccccc2)OC1c1ccc([N+](=O)[O-])cc1 (stereo unspecified) 93 % of control

Same for Ic1sc(I)c(I)c1I 105 % of control

What about this compound? CC(=O)n1c(Cl)c(/C=N/NS(=O)(=O)c2ccc(C)cc2)c2ccccc21 100 % of control

Another: CCCCn1c(Cl)c(/C=N\Nc2ccc([N+](=O)[O-])cc2)c2ccccc21 86 % of control

Please do the same for O=S(=O)(/N=C1/c2ccccc2/C(=N/S(=O)(=O)c2ccccc2)C2CC=CCC12)c1ccccc1 (stereo unspecified) as well. 100 % of control

Follow-up item: CSc1nc2n(C)cc(C)cc-2c(=O)n1 97 % of control

----------
Would you kindly list T/C for each of these molecules?
- Test system: P388 leukemia ip, CD2F1 mice, survival T/C
- method.description: NCI In Vivo Anticancer Drug Screen. Data for tumor model P388 Leukemia (intraperitoneal) in CD2F1 (CDF1) mice
- condition.context: endpoint: median survival time; dose: 50.0 mg/kg/injection; schedule: Q04DX003 (ip); vehicle: saline; higher = longer survival
Toxic doses and inconclusive results are not listed.

Item under review: C1CNCOC1 . Reported T/C? 120 % of control

Thanks! And N=C(N)c1ccc(OCCCOc2ccc(C(=N)N)cc2Br)c(Br)c1 ? 113 % of control

Another molecule: CC(C)CC(NC(=O)OCC[P+](c1ccccc1)(c1ccccc1)c1ccccc1)C(=O)O (centres undefined) 121 % of control

Same read-out for CC(C)(C)c1ccc(C(=O)O)c(O)c1.CC(C)(C)c1ccc(C(=O)O)c(O)c1.[Cu] ? 103 % of control

----------
- Tested on: P388 leukemia ip, CD2F1 mice, survival T/C
- method.description: NCI In Vivo Anticancer Drug Screen. Data for tumor model P388 Leukemia (intraperitoneal) in CD2F1 (CDF1) mice
- condition.context: endpoint: median survival time; dose: 60.0 mg/kg/injection; schedule: Q01DX005 (ip); vehicle: saline; higher = longer survival
Toxic doses and inconclusive results are not listed.
Give T/C for every item shown.

Please give the measured T/C for this molecule: CCc1cc(-c2cc(CC)on2)no1 103 % of control

Next molecule up: C=CC(/C=C\c1ccc(OC2OC(CO)C(O)C(O)C2O)cc1)c1ccc(OC2OC(CO)C(O)C(O)C2O)cc1 (centres undefined) 97 % of control

Field entry: COc1cc(Cc2n[nH]c(=S)n2-c2ccccc2)c(S(=O)(=O)N2CCOCC2)cc1OC 102 % of control

c1ccc2c(SCCCCSc3c4ccccc4nc4ccccc34)c3ccccc3nc2c1 ? 113 % of control

What about N=c1ccccn1CCO ? 94 % of control

Subsequent entry: CS(=O)(=O)CC(=N\O)/C(CS(C)(=O)=O)=N/O 103 % of control

What do you have for [N-]=[N+]=NCC1OC(n2cnc3c(N)ncnc32)CC1O (centres undefined) ? 104 % of control

Then COC1(OC)CC=COC1(OC)OC ? 103 % of control

# iterate: CCCC(=O)C(CC)C1(C(=O)OC)NC(=S)NC(=O)C1C#N (centres undefined) 98 % of control

Also, CN(C)CCN(C)CC(C)(C)C(=O)/C=C/c1ccccc1 please. 106 % of control

Repeat with CN(C)CCCNC(=O)c1cccc2cccc(C(=O)O)c12 97 % of control

Consider next the molecule CCOC(OCC)N(C)C in the same way. 95 % of control

Now consider CC1(C)OC(=O)C(CC(=O)O)O1 (centres undefined) . 105 % of control

Note, next up: CC(C(=O)c1ccccc1)c1nc2nnc(N)n2[nH]c1=O (centres undefined) 95 % of control

----------
- Test system: P388 leukemia ip, CD2F1 mice, survival T/C
- method.description: NCI In Vivo Anticancer Drug Screen. Data for tumor model P388 Leukemia (intraperitoneal) in CD2F1 (CDF1) mice
- condition.context: endpoint: median survival time; dose: 200.0 mg/kg/injection; schedule: Q01DX005 (ip); vehicle: saline with Tween-80; higher = longer survival
Toxic doses and inconclusive results are not listed.
assay.readout: T/C

Quick one: T/C for CSc1nc(SC)c2cnn(COCCO)c2n1 ? 92 % of control

Follow-up entry: O=C(Nc1ccc(Cl)c(Cl)c1)NN1CCCCCC1 101 % of control

Continue with O=C1OC2C(I)C3CC2C1C3c1ccccc1 (configuration not stated) 105 % of control

Item: CCN(CC)CCNc1cccc2oc3ccc(OS(=O)(=O)c4ccc(C)cc4)cc3c(=O)c12 102 % of control

Same thing, different compound: CN(C)CCC(=O)Nc1nc(-c2ccc(Cl)cc2)cs1 96 % of control

Follow-up entry: COC(=O)C(C)n1c(C(C)C)csc1=S (configuration not stated) 98 % of control

Try this compound next: CC(NC(=O)OC(C)(C)C)C(=O)NC(C)C(=O)OCc1ccccc1 (configuration not stated) 92 % of control

Likewise for CC1=C(C)C(=O)c2c(c(O)c3ccccc3c2Cl)C1=O ? 93 % of control

// query: COC(=O)C1=CC(=O)N2C(=Nc3cccc4cccc2c34)S1 103 % of control

Similarly, COc1cccc(C(Cc2ccccc2)NCc2ccccc2)c1O (configuration not stated) ? 101 % of control

And COC(C)C(O)(C(=O)OCC1=CC[N+]2([O-])CCC(O)C12)C(C)(C)O (configuration not stated) ? 112 % of control

What would you report for COc1cc(Br)c(CC(NC(=O)c2ccccc2)c2ccc(OC)c(OC)c2OC)cc1OC (configuration not stated) ? 91 % of control

----------
- Test system: P388 leukemia ip, CD2F1 mice, survival T/C
- method.description: NCI In Vivo Anticancer Drug Screen. Data for tumor model P388 Leukemia (intraperitoneal) in CD2F1 (CDF1) mice
- condition.context: endpoint: median survival time; dose: 200.0 mg/kg/injection; schedule: Q04DX002 (ip); vehicle: Klucel (hydroxypropylcellulose) (HPC); higher = longer survival
Inconclusive results and toxic doses are left out.
Exercise: state measured T/C for each of the compounds provided.

# value lookup — system P388 leukemia ip, CD2F1 mice, survival T/C, readout T/C, item C=C(C)c1nc(N)nc(-c2ccc([N+](=O)[O-])cc2)n1 88 % of control

Could you do the same for O=C(c1ccccc1Cl)n1c(=O)oc2ccccc21 , please? 90 % of control

And then CCOC(=O)N1CCC(n2nncc2OCC)CC1 , what is it? 102 % of control

What about this compound? NC(N)=NS(=O)(=O)c1ccc(N=Cc2c3ccccc3nc3ccccc23)cc1 92 % of control

Similarly, O=S(=O)(Nc1ncccn1)c1ccc(N=Cc2c3ccccc3nc3ccccc23)cc1 ? 91 % of control

Request: Oc1ccc(CCNCc2ccc3c(c2)OCO3)cc1O 94 % of control

Please answer likewise for CC(=O)N1NC(=O)c2c([nH]c3ccccc23)C1c1ccccc1 (configuration not stated) 106 % of control
